Target: HCV polymerase (NS5B region of hepatitis C virus) (Hepatitis C virus genotype 1a)
Construct: The NS5B region of hepatitis C virus was produced in Escherichia coli; made in house; host or cells: Escherichia coli
Sequence (P27958 2421-3011): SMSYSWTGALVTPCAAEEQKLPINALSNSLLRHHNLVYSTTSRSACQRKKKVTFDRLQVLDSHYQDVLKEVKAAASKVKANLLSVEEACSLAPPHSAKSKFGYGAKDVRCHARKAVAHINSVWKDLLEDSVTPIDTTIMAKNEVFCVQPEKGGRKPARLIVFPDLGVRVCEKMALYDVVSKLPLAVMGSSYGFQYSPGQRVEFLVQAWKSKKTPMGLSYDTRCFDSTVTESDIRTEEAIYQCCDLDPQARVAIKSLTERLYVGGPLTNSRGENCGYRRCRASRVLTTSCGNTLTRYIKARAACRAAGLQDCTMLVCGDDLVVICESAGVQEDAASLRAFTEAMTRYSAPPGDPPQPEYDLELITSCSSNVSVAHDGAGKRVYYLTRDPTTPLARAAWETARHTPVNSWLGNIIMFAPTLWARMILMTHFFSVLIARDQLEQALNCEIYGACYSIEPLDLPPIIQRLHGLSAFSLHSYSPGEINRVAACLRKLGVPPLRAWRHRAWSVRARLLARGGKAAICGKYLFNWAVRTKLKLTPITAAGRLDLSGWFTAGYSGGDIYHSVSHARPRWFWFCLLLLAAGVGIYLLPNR
Method Notes: Polymerase inhibition test (hepatitis C virus)
Format: biochemical
Readout Label: IC50 (nM)
Field: numeric (nM). Do not append units.

Query string: // returns reported IC50 for input Cc1cn([C@@H]2O[C@H](COP(=O)(O)OP(=O)(O)OP(=O)(O)O)[C@@H](O)[C@H]2O)c(=O)c(C(N)=O)n1 [Reference Example 23]
Result string: 2200
